Value source: patent US20130296258A1

- ASSAY_SYSTEM: T1, Recombinant human Glypican-3 (human, UniProt P51654 25-559, limits assumed, randomly biotinylated via Lysine residues (EZ-Link Sulfo-NHS-LC-LC-Biotin) where captured on Neutravidin; not biotinylated where used as competitor in solution)
- T1 construct: Bought protein; The biotinylated and the non-biotinylated preparation are written as one molecule; also called GPC3; GPC-3
- T1 sequence (P51654 25-559 limits assumed): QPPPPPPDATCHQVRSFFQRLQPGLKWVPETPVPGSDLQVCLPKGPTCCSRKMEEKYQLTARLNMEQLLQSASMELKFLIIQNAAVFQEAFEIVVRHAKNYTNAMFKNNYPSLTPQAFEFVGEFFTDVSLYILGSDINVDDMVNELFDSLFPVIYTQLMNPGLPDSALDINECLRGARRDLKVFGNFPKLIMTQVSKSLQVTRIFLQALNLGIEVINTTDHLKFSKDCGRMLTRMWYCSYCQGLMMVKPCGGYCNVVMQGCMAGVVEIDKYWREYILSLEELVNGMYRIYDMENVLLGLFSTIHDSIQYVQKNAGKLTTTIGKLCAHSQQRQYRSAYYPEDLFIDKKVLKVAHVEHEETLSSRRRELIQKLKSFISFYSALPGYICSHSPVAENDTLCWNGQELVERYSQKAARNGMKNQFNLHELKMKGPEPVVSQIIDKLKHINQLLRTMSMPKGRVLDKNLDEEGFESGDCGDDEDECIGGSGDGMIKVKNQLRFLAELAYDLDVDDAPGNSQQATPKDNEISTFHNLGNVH
- PROTOCOL_DETAILS: direct ELISA; biotinylated human Glypican-3 (1 ug/ml) captured via Neutravidin, dilution series of purified mutein
RECORDED_METRIC: pKd
Answers are plain numbers, as −log10 of the molar value.

[[record]]
binder = "PIE-G3D (designed binder, C-terminal Strep-tag II; also called Lcn2 mutein; not shown: C-terminal Strep-tag II) QDSTSDLIPAPPLSKVPLQQNFQDNQFHGKWYVVGMAGNARLREDKDPVKMTATIYELKEDKSYNVTAVQFRLKKCQYGITTFVPGSQPGEFTLGDIKSIPGLTSMLVRVVSTNYNQHAMVFFKRVRQNREFFDITLYGRTKELTSELKENFIRFSKSLGLPENHIVFPVPIDQCIDGSAWSHPQFEK"
obs_value = 9.34


Field: next binder
Request: Query: pKd; subject: PIE-G3A (designed binder, Made in E. coli from phNGAL98 with a C-terminal Strep-tag II; also called Lcn2 mutein; not shown: C-terminal Strep-tag II) QDSTSDLIPAPPLSKVPLQQNFQDNQFHGKWYVVGIAGNWILREDKDPPKMRATIYELKEDKSYNVTRVRFDEKKCGYGIATFVPGSQPGEFTLGVIKSRPGITSDLVRVVSTNYNQHAMVFFKFVKQNREYFGITLYGRTKELTSELKENFIRFSKSLGLPENHIVFPVPIDQCIDGSAWSHPQFEK
Response: 8.12
